Reported Activity values for the following molecules.
Test system: EMT6
Assay explanation: Inhibition of proteasome in mouse EMT6 cell lysate assessed as cleavage of Suc-leu-leu-val-Tyr-AMC at 100 nM after 15 mins
Parameters: scale not given: the % may be the effect or the level left

# Molecule, Units label, Activity
measured = [
    ("CC(C)C[C@@H](C=O)NC(=O)[C@@H](CC(C)C)NC(=O)[C@H](CC(C)C)NC(=O)OCc1ccccc1", "%", 17),
    ("CC(C)C[C@@H](C=O)NC(=O)[C@H](CC(C)C)NC(=O)[C@H](CC(C)C)NC(=O)OCc1ccccc1 (stereo in doubt)", "%", 71),
    ("CC(C)CC(NC(=O)[C@@H](CC(C)C)NC(=O)OCc1ccccc1)C(=O)N[C@H](C=O)CC(C)C (stereo in doubt)", "%", 87),
]
